test system: canine cutaneous mastocytoma cells; assay: Toxin response of mast cells (mastoparan, Streptolysin O, UVB); format: cell-based; conditions: preincubation 10 and 100 μmol, compared with native FA
Observed property: Relative differences: effect on toxin response of mast cells

These recorded examples may help you get a feel for the data.
{"Compound": "CCCCC=C(C=CC=CCCCCCCCC(=O)O)[N+](=O)[O-]", "Observed measurement": "+"}
{"Compound": "CCCCCCCC/C(=C\\CCCCCCCC(=O)O)[N+](=O)[O-] [compound 12, 10-nitro-trans-oleic acid]", "Observed measurement": "++"}
{"Compound": "CCCCCCCC/C=C(/CCCCCCCCCCCCCC(=O)O)[N+](=O)[O-] [compound 8, 15-nitro-cis-15-tetracosenoic acid]", "Observed measurement": "+"}
{"Compound": "CCCCC/C=C(/C/C=C\\C/C=C(/C/C=C\\CCCC(=O)O)[N+](=O)[O-])[N+](=O)[O-]", "Observed measurement": 0}
{"Compound": "CCC=CCC=C(CC=CCC=CCC=CCC=C(CCC(=O)O)[N+](=O)[O-])[N+](=O)[O-]", "Observed measurement": 0}

Hey, can you go through the list below and give me Relative differences: effect on toxin response of mast cells for every item?
1. CCCCCC/C=C(\CCCCCCCC(=O)O)[N+](=O)[O-] [compound 16, 9-nitro-9-trans-hexadecenoic acid]
2. CCCCCCCC/C=C(/CCCCCCCC(=O)O)[N+](=O)[O-] [compound 1, 9-nitro cis-oleic acid]
3. CC/C=C\C/C=C\C/C(=C/C/C=C\C/C=C\CCCCCC(=O)O)[N+](=O)[O-]
4. CCCCC/C=C(/C/C=C\C/C=C\C/C=C\C/C=C\CCC(=O)O)[N+](=O)[O-]

1. ++
2. +++
3. ++
4. +

Hey, can you go through the list below and give me Relative differences: effect on toxin response of mast cells for every item?
1. CC/C=C\C/C=C\C/C=C(/CCCCCCCC(=O)O)[N+](=O)[O-]
2. CCCCCCCC/C(=C/CCCCCCCC(=O)O)[N+](=O)[O-] [compound 3, 10-nitro-cis-oleic acid]

1. ++
2. +++
